The measured values listed here are drawn from the supplement of paper PMC10307832.

# Test system: NCI-H522
# Assay Info: relative viability (nuclei count vs DMSO), 5 days (fraction); higher = more cells survive
# Cond: first compound 0.6325 µM
Response field label takes class 1 when relative viability is strictly below 0.8 and class 0 in all other cases.

{"Molecule": "Cc1csc(=NC2CCCCC2)n1/N=C/c1ccc(O)c(O)c1O [MIM1] + Cc1cc(Nc2cc(N3CCN(C)CC3)nc(Sc3ccc(NC(=O)C4CC4)cc3)n2)n[nH]1 [Tozasertib] (partner 0.1 µM)", "Label": "class 1"}
{"Molecule": "CN1CCN(CCOc2cc(OC3CCOCC3)c3c(Nc4c(Cl)ccc5c4OCO5)ncnc3c2)CC1 [Saracatinib] + O=C(CCCCCCC(=O)Nc1ccccc1)NO [Vorinostat] (partner 1 µM)", "Label": "class 0"}
{"Molecule": "CN1CCN(CCOc2cc(OC3CCOCC3)c3c(Nc4c(Cl)ccc5c4OCO5)ncnc3c2)CC1 [Saracatinib] + N=C(N)NC(=N)NCCc1ccccc1 [Phenformin] (partner 250 µM)", "Label": "class 1"}

Lab note: next molecule to report on.
Q: Record Cc1csc(=NC2CCCCC2)n1/N=C/c1ccc(O)c(O)c1O [MIM1] + CCNC(=O)c1noc(-c2cc(C(C)C)c(O)cc2O)c1-c1ccc(CN2CCOCC2)cc1 [Luminespib] (partner 0.01 µM) : is its relative viability strictly below 0.8?
Ans: class 0
